System: QSK
Construct: gene KIAA0999
DETAILS: Compound Concentration (nM):1000;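 further: KINOMEscan scanMAX binding as percent activity remaining versus control; lower means stronger binding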
As shown below, each of these compounds has a reported Percent Control value.
MEASURED_QUANTITY: Percent Control (%)

[[record]]
compound = "COC(=O)Nc1nc2ccc(Oc3ccc(NC(=O)Nc4cc(C(F)(F)F)ccc4F)cc3)cc2s1.Cl [GW693917A]"
measured_quantity = "Percent Control"
unit_symbol = "%"
numeric_value = 88

[[record]]
compound = "COc1cc(C)c(N(C)C(=O)CN(C)C)cc1Nc1nc(Nc2cccc(F)c2C(N)=O)c2cc[nH]c2n1"
measured_quantity = "Percent Control"
unit_symbol = "%"
numeric_value = 100

[[record]]
compound = "CN(C)c1cc2c(Nc3ccc4c(cnn4Cc4ccccc4)c3)ncnc2cn1 [GW282974X]"
measured_quantity = "Percent Control"
unit_symbol = "%"
numeric_value = 95

[[record]]
compound = "NS(=O)(=O)c1ccc(N/N=C2\\C(=O)Nc3ccc(C(=O)NCc4ccncc4)cc32)cc1 [GW300657X]"
measured_quantity = "Percent Control"
unit_symbol = "%"
numeric_value = 100

[[record]]
compound = "COc1cccc(-n2ncc3c(N/N=C/c4ccncc4)ncnc32)c1 [GW784752X]"
measured_quantity = "Percent Control"
unit_symbol = "%"
numeric_value = 100

[[record]]
compound = "NS(=O)(=O)c1ccc(N/N=C2\\C(=O)Nc3ccc(-c4cnco4)cc32)cc1"
measured_quantity = "Percent Control"
unit_symbol = "%"
numeric_value = 100

[[record]]
compound = "COc1ccc2c(-c3ccnc(Nc4cccc(OC(F)(F)F)c4)n3)cnn2n1 [GW810372X]"
measured_quantity = "Percent Control"
unit_symbol = "%"
numeric_value = 95

[[record]]
compound = "CC(C)COC(=O)c1ccc2c(c1)/C(=C/Nc1ccc(S(N)(=O)=O)cc1)C(=O)N2 [GW416981X]"
measured_quantity = "Percent Control"
unit_symbol = "%"
numeric_value = 95


* * *

System: DAPK1
DETAILS: Compound Concentration (nM):1000
MEASURED_QUANTITY: Percent Control (%)

[[record]]
compound = "COc1cccc(-n2ncc3c(N/N=C/c4ccncc4)ncnc32)c1 [GW784752X]"
measured_quantity = "Percent Control"
numeric_value = 100

[[record]]
compound = "CN(C)c1cc2c(Nc3ccc4c(cnn4Cc4ccccc4)c3)ncnc2cn1 [GW282974X]"
measured_quantity = "Percent Control"
numeric_value = 100

[[record]]
compound = "O=C(Nc1n[nH]c2nc(-c3ccc(O)cc3)c(Br)cc12)C1CC1 [SB-725317]"
measured_quantity = "Percent Control"
numeric_value = 55

[[record]]
compound = "CC1=C(C(=O)Nc2ccc3[nH]ncc3c2)C(c2ccc3ccccc3c2)CC(=O)N1 (centres unmarked) [GSK270822A]"
measured_quantity = "Percent Control"
numeric_value = 95

[[record]]
compound = "COc1cc(N2CCN(C(C)C)CC2)ccc1Nc1nc(Nc2ccc(F)cc2C(=O)NC[C@@H](O)CO)c2cc[nH]c2n1 [GSK1392956A]"
measured_quantity = "Percent Control"
numeric_value = 13

[[record]]
compound = "Cl.c1ccc(Cc2nc3ccc(Nc4ncnc5ccccc45)cc3[nH]2)cc1 [GR269666A]"
measured_quantity = "Percent Control"
numeric_value = 100

[[record]]
compound = "COc1ccc(COc2ccc(Cc3cnc(N)nc3N)cc2OC)cc1 [GW632580X]"
measured_quantity = "Percent Control"
numeric_value = 94

[[record]]
compound = "COc1cc(C)c(N(C)C(=O)CN(C)C)cc1Nc1nc(Nc2cccc(F)c2C(N)=O)c2cc[nH]c2n1 [GSK2219385]"
measured_quantity = "Percent Control"
numeric_value = 85


* * *

Test system: SLK
DETAILS: Compound Concentration (nM):1000
MEASURED_QUANTITY: Percent Control (%)

[[record]]
molecule = "COc1cc2ncn(-c3cc(O[C@H](C)c4ccccc4Cl)c(C(N)=O)s3)c2cc1OC [GSK237701A]"
measured_quantity = "Percent Control"
numeric_value = 0.4

[[record]]
molecule = "COC(=O)Nc1nc2ccc(Oc3ccc(NC(=O)Nc4cc(C(F)(F)F)ccc4F)cc3)cc2s1.Cl [GW693917A]"
measured_quantity = "Percent Control"
numeric_value = 68

[[record]]
molecule = "NS(=O)(=O)c1ccc(N/N=C2\\C(=O)Nc3ccc(Cl)cc32)cc1 [GW280670X]"
measured_quantity = "Percent Control"
numeric_value = 100

[[record]]
molecule = "CCS(=O)(=O)c1ccc(OC)c(Nc2ncc(-c3cccc(F)c3)o2)c1 [GW621970X]"
measured_quantity = "Percent Control"
numeric_value = 100

[[record]]
molecule = "COc1cc(N2CCN(C(C)C)CC2)ccc1Nc1nc(Nc2ccc(F)cc2C(=O)NC[C@@H](O)CO)c2cc[nH]c2n1 [GSK1392956A]"
measured_quantity = "Percent Control"
numeric_value = 100

[[record]]
molecule = "CCc1ccc(Oc2nccc(-c3c(-c4ccc(F)cc4)ncn3C3CCNCC3)n2)cc1"
measured_quantity = "Percent Control"
numeric_value = 79

[[record]]
molecule = "CN(C)c1cc2c(Nc3ccc4c(cnn4Cc4ccccc4)c3)ncnc2cn1 [GW282974X]"
measured_quantity = "Percent Control"
numeric_value = 81

[[record]]
molecule = "COc1ccc2c(-c3ccnc(Nc4cccc(OC(F)(F)F)c4)n3)cnn2n1 [GW810372X]"
measured_quantity = "Percent Control"
numeric_value = 100


* * *

System: PKN1
DETAILS: Compound Concentration (nM):1000
MEASURED_QUANTITY: Percent Control

[[record]]
compound = "O=C1Nc2ccc(C(=O)c3ccco3)cc2C1=Cc1cc(Cl)c(O)c(Cl)c1 [GW406108X]"
measured_quantity = "Percent Control"
result = "83%"

[[record]]
compound = "CCS(=O)(=O)c1ccc(OC)c(Nc2ncc(-c3cccc(F)c3)o2)c1 [GW621970X]"
measured_quantity = "Percent Control"
result = "100%"

[[record]]
compound = "Cl.O=C(O[C@H]1CN[C@H](C#Cc2cc3ncnc(Nc4ccc5c(cnn5Cc5ccccc5)c4)c3s2)C1)N1CCOCC1 [GSK200398A]"
measured_quantity = "Percent Control"
result = "88%"

[[record]]
compound = "Cl.O=S1CCN(Cc2ccc(-c3ccc4ncnc(Nc5ccc(OCc6ccccc6)c(F)c5)c4c3)o2)CC1 [GW576924A]"
measured_quantity = "Percent Control"
result = "100%"

[[record]]
compound = "CCc1ccc(Oc2nccc(-c3c(-c4ccc(F)cc4)ncn3C3CCNCC3)n2)cc1"
measured_quantity = "Percent Control"
result = "94%"

[[record]]
compound = "NS(=O)(=O)c1ccc(N/N=C2\\C(=O)Nc3ccc(C(=O)NCc4ccncc4)cc32)cc1 [GW300657X]"
measured_quantity = "Percent Control"
result = "100%"

[[record]]
compound = "Cl.O=C(Nc1ccc(Oc2ccc3[nH]c(NC(=O)c4ccco4)nc3c2)cc1)Nc1cc(C(F)(F)F)ccc1F [GW683134A]"
measured_quantity = "Percent Control"
result = "100%"


* * *

As shown below, each of these molecules has a reported Percent Control value.
Tested on: ABL1(F317I)-nonphosphorylated
DETAILS: Compound Concentration (nM):1000
MEASURED_QUANTITY: Percent Control (%)

[[record]]
molecule = "COc1ccccc1-c1cc(/C=C2\\C(=O)Nc3ncc(Br)cc32)cc(Br)c1O [GW442130X]"
unit_symbol = "%"
numeric_value = 100

[[record]]
molecule = "C/C(Nc1ccc(S(N)(=O)=O)cc1)=C1/C(=O)Nc2ccccc21 [GW335962X]"
unit_symbol = "%"
numeric_value = 88

[[record]]
molecule = "Cl.O=C(Nc1ccc(Oc2ccc3[nH]c(NC(=O)c4ccccc4)nc3c2)cc1)Nc1cc(C(F)(F)F)ccc1F [GW709042A]"
unit_symbol = "%"
numeric_value = 43

[[record]]
molecule = "Cc1cc(O)cc(C)c1/C=C/c1cncc(C(N)=O)c1 [GW435821X]"
unit_symbol = "%"
numeric_value = 90


* * *

Test system: DMPK2
Construct: gene CDC42BPG
DETAILS: Compound Concentration (nM):1000
As shown below, each of these compounds has a reported Percent Control value.
MEASURED_QUANTITY: Percent Control (%)

[[record]]
compound = "COc1cc(N2CCN(C(C)C)CC2)ccc1Nc1nc(Nc2ccc(F)cc2C(=O)NC[C@@H](O)CO)c2cc[nH]c2n1 [GSK1392956A]"
measured_on = "DMPK2"
measured_quantity = "Percent Control"
numeric_value = 75

[[record]]
compound = "Cl.O=C(Nc1ccc(Oc2ccc3[nH]c(NC(=O)c4ccccc4)nc3c2)cc1)Nc1cc(C(F)(F)F)ccc1F [GW709042A]"
measured_on = "DMPK2"
measured_quantity = "Percent Control"
numeric_value = 86

[[record]]
compound = "CC(C)COC(=O)c1ccc2c(c1)/C(=C/Nc1ccc(S(N)(=O)=O)cc1)C(=O)N2 [GW416981X]"
measured_on = "DMPK2"
measured_quantity = "Percent Control"
numeric_value = 100

[[record]]
compound = "COc1cc(C=NNc2ncnc3c2cnn3-c2ccccc2)ccc1O [GW513184X]"
measured_on = "DMPK2"
measured_quantity = "Percent Control"
numeric_value = 100

[[record]]
compound = "CC1=C(C(=O)Nc2ccc3[nH]ncc3c2)C(c2ccc(Cl)c(Cl)c2)CC(=O)N1 (centres unmarked) [GSK299115A]"
measured_on = "DMPK2"
measured_quantity = "Percent Control"
numeric_value = 82

[[record]]
compound = "CCS(=O)(=O)c1ccc(OC)c(Nc2ncc(-c3cccc(F)c3)o2)c1 [GW621970X]"
measured_on = "DMPK2"
measured_quantity = "Percent Control"
numeric_value = 100

[[record]]
compound = "COc1cccc(-c2c[nH]c3c(N/N=C/c4ccncc4)ncnc23)c1 [GW814408X]"
measured_on = "DMPK2"
measured_quantity = "Percent Control"
numeric_value = 82

[[record]]
compound = "NS(=O)(=O)c1ccc(N/N=C2\\C(=O)Nc3ccc(Cl)cc32)cc1 [GW280670X]"
measured_on = "DMPK2"
measured_quantity = "Percent Control"
numeric_value = 100


Provenance of the data: paper PMC7826789
